// provenance: paper PMC8970883

experiment: Pharmacokinetic study in rats after intragastric administration of Farfarae Flos extract (plasma, LC-MS/MS); type: in vivo; conditions: male, rat, plasma, po, 7.8 g/kg, oral Farfarae Flos extract 7.8 g·kg^−1, mean ± SD
EXPERIMENTAL_ENDPOINT: Cmax (µg/mL)

(I) C=C1[C@H](OC(=O)/C=C(\C)CC)C[C@@H](C(C)C)[C@@H]2[C@@H]([C@@H](C)OC(C)=O)C(=O)C[C@@H]12
(II) O=C(/C=C/c1ccc(O)c(O)c1)O[C@@H]1C[C@@](O)(C(=O)O)C[C@@H](O)[C@@H]1O
(III) O=C(C=Cc1ccc(O)c(O)c1)OC1CC(O)(C(=O)O)CC(O)C1OC(=O)C=Cc1ccc(O)c(O)c1 (stereo not shown)
Order these by Cmax, descending, and give the full ranking. The labels, placed in the requested order, form the answer.
II, III, I
(II: 0.486 µg/mL, III: 0.265 µg/mL, I: 0.0181 µg/mL)
